In this section, each of the compounds is paired with its reported T/C % of MST.
# Test system: melanoma B16
# experimental-details: In vivo antitumor activity against B16 melanoma in mice
# stated-conditions: B16, male BDF1 mice, 3 mg/kg/day, Q4Dx3 ip
The reply should contain only the number, in %.

Entry CCOc1c2cccc(OC3OC(C)C(O)C(C)(O)C3OC3OC(C)C(O)C(OC)C3N)c2c2oc(=O)c3c(C)ccc4oc(=O)c1c2c43 (stereo not drawn) : reported T/C % of MST = ?
178

Entry CCCCOc1c2cccc(OC3OC(C)C(O)C(C)(O)C3OC3OC(C)C(O)C(OC)C3N)c2c2oc(=O)c3c(C)ccc4oc(=O)c1c2c43 (stereo not drawn) : reported T/C % of MST = ?
160

* * *

In this section, each of the compounds is paired with its reported T/C % of MST.
# System: melanoma B16
# experimental-details: In vivo antitumor activity against B16 melanoma in mice
# stated-conditions: B16, male BDF1 mice, 3 mg/kg/day, Q4Dx3 ip
The reply should contain only the number, in %.

Worked cases, answers included:
{"columns": ["compound", "T/C % of MST (%)"],
 "data": [
  ["CCCCCCCCCCOc1c2cccc(OC3OC(C)C(O)C(C)(O)C3OC3OC(C)C(O)C(OC)C3N)c2c2oc(=O)c3c(C)ccc4oc(=O)c1c2c43 (stereo not drawn)", 153],
  ["CCOc1c2cccc(OC3OC(C)C4OC(C)(C)OC4(C)C3OC3OC(C)C(O)C(OC)C3N)c2c2oc(=O)c3c(C)ccc4oc(=O)c1c2c43 (stereo not drawn)", 153]
]}

Entry CCCCCCOc1c2cccc(OC3OC(C)C(O)C(C)(O)C3OC3OC(C)C(O)C(OC)C3N)c2c2oc(=O)c3c(C)ccc4oc(=O)c1c2c43 (stereo not drawn) : reported T/C % of MST = ?
132

* * *

# Tested on: murine melanoma B16-F10 cells
# experimental-details: In vitro cytotoxicity, neutral red staining after 72 hours
# stated-conditions: 72 hours incubation
In this section, each of the molecules is paired with its reported Cytotoxicity IC50.
Provide the measurement as a number trailed by its unit.

Entry COc1c2cccc(OC3OC(C)C(O)C(C)(O)C3OC3OC(C)C(O)C(OC)C3N)c2c2oc(=O)c3c(C)ccc4oc(=O)c1c2c43 (centres unmarked) [Compound 7a, 6-O-Methylelsamicin A] : reported Cytotoxicity IC50 = ?
0.19 µg/mL

Entry CCOc1c2cccc(OC3OC(C)C4OC(C)(C)OC4(C)C3OC3OC(C)C(O)C(OC)C3N)c2c2oc(=O)c3c(C)ccc4oc(=O)c1c2c43 (centres unmarked) [Compound 8b] : reported Cytotoxicity IC50 = ?
0.06 µg/mL

Entry COC1C(N)C(OC2C(Oc3cccc4c(OCCCN)c5c(=O)oc6ccc(C)c7c(=O)oc(c34)c5c67)OC(C)C(O)C2(C)O)OC(C)C1O (centres unmarked) [Compound 7i, 6-O-(3-Aminopropyl)elsamicin A] : reported Cytotoxicity IC50 = ?
2.3 µg/mL

Entry COc1c2cccc(OC3OC(C)C4OC(C)(C)OC4(C)C3OC3OC(C)C(O)C(OC)C3N)c2c2oc(=O)c3c(C)ccc4oc(=O)c1c2c43 (centres unmarked) [Compound 8a] : reported Cytotoxicity IC50 = ?
0.08 µg/mL

Entry CCCOc1c2cccc(OC3OC(C)C(O)C(C)(O)C3OC3OC(C)C(O)C(OC)C3N)c2c2oc(=O)c3c(C)ccc4oc(=O)c1c2c43 (centres unmarked) [Compound 7c, 6-O-n-Propylelsamicin A] : reported Cytotoxicity IC50 = ?
0.03 µg/mL

* * *

In this section, each of the molecules is paired with its reported T/C % of MST.
# System: lymphocytic leukemia P388
# experimental-details: In vivo antitumor activity against P388 leukemia in mice
# stated-conditions: P388, female CDF1 mice, 10 mg/kg/day, Q1Dx3 ip
# Procedure: In vivo antitumor activity of the above fifteen derivatives was tested in the lymphocytic leukemia P388 and melanoma B16 systems. Female CDF₁ (for P388) and male BDF₁ (for B16) mice were inoculated by ip injection at 10⁶ P388 cells and 0.5 ml of a 10% B16 brei per mouse, respectively (day 0). […] The percent increase of median survival time (MST) of treated animals over that of untreated control animals was determined and reported as T/C %. […]
The reply should contain only the number, in %.

{"columns": ["molecule", "unit-of-measure", "measured-result"],
 "data": [
  ["COC1C(N)C(OC2C(Oc3cccc4c(O)c5c(=O)oc6ccc(C)c7c(=O)oc(c34)c5c67)OC(C)C(O)C2(C)O)OC(C)C1O (stereo not drawn)", "%", 206]
]}

Entry CCCOc1c2cccc(OC3OC(C)C(O)C(C)(O)C3OC3OC(C)C(O)C(OC)C3N)c2c2oc(=O)c3c(C)ccc4oc(=O)c1c2c43 (stereo not drawn) : reported T/C % of MST = ?
152

Entry COC1C(N)C(OC2C(Oc3cccc4c(OCCCN)c5c(=O)oc6ccc(C)c7c(=O)oc(c34)c5c67)OC(C)C(O)C2(C)O)OC(C)C1O (stereo not drawn) : reported T/C % of MST = ?
130

Entry CCOc1c2cccc(OC3OC(C)C(O)C(C)(O)C3OC3OC(C)C(O)C(OC)C3N)c2c2oc(=O)c3c(C)ccc4oc(=O)c1c2c43 (stereo not drawn) : reported T/C % of MST = ?
170

Entry CCCCOc1c2cccc(OC3OC(C)C(O)C(C)(O)C3OC3OC(C)C(O)C(OC)C3N)c2c2oc(=O)c3c(C)ccc4oc(=O)c1c2c43 (stereo not drawn) : reported T/C % of MST = ?
162

Entry CCCCCCOc1c2cccc(OC3OC(C)C4OC(C)(C)OC4(C)C3OC3OC(C)C(O)C(OC)C3N)c2c2oc(=O)c3c(C)ccc4oc(=O)c1c2c43 (stereo not drawn) : reported T/C % of MST = ?
120

Entry CCOc1c2cccc(OC3OC(C)C4OC(C)(C)OC4(C)C3OC3OC(C)C(O)C(OC)C3N)c2c2oc(=O)c3c(C)ccc4oc(=O)c1c2c43 (stereo not drawn) : reported T/C % of MST = ?
190

Entry COC1C(N)C(OC2C(Oc3cccc4c(OC(C)C)c5c(=O)oc6ccc(C)c7c(=O)oc(c34)c5c67)OC(C)C(O)C2(C)O)OC(C)C1O (stereo not drawn) : reported T/C % of MST = ?
148

Entry COC1C(N)C(OC2C(Oc3cccc4c(OCCCN5C(=O)c6ccccc6C5=O)c5c(=O)oc6ccc(C)c7c(=O)oc(c34)c5c67)OC(C)C3OC(C)(C)OC32C)OC(C)C1O (stereo not drawn) : reported T/C % of MST = ?
130

* * *

# System: murine melanoma B16-F10 cells
# experimental-details: In vitro cytotoxicity, neutral red staining after 72 hours
# stated-conditions: 72 hours incubation
In this section, each of the molecules is paired with its reported Cytotoxicity IC50.
The reply should contain only the number, in µg/mL.

Worked cases, answers included:
{"columns": ["molecule", "property-label", "unit-of-measure", "measured-result"],
 "data": [
  ["COC1C(N)C(OC2C(Oc3cccc4c(OCCCN)c5c(=O)oc6ccc(C)c7c(=O)oc(c34)c5c67)OC(C)C3OC(C)(C)OC32C)OC(C)C1O (stereo not drawn)", "Cytotoxicity IC50", "µg/mL", 1.8],
  ["CCCCCCOc1c2cccc(OC3OC(C)C(O)C(C)(O)C3OC3OC(C)C(O)C(OC)C3N)c2c2oc(=O)c3c(C)ccc4oc(=O)c1c2c43 (stereo not drawn)", "Cytotoxicity IC50", "µg/mL", 0.11]
]}

We next turn to a different molecule, shown below.
Entry CCCCCCCCCCOc1c2cccc(OC3OC(C)C(O)C(C)(O)C3OC3OC(C)C(O)C(OC)C3N)c2c2oc(=O)c3c(C)ccc4oc(=O)c1c2c43 (stereo not drawn) : reported Cytotoxicity IC50 = ?
2.5

* * *

# System: lymphocytic leukemia P388
# experimental-details: In vivo antitumor activity against P388 leukemia in mice
# stated-conditions: P388 system; in words

{"columns": ["compound", "experimental-target", "toxicity compared with elsamicin A"],
 "data": [
  ["CCCOc1c2cccc(OC3OC(C)C(O)C(C)(O)C3OC3OC(C)C(O)C(OC)C3N)c2c2oc(=O)c3c(C)ccc4oc(=O)c1c2c43 (stereo not shown)", "lymphocytic leukemia P388", "seemed to be less toxic"],
  ["CCOc1c2cccc(OC3OC(C)C(O)C(C)(O)C3OC3OC(C)C(O)C(OC)C3N)c2c2oc(=O)c3c(C)ccc4oc(=O)c1c2c43 (stereo not shown)", "lymphocytic leukemia P388", "seemed to be less toxic"],
  ["CCCCOc1c2cccc(OC3OC(C)C(O)C(C)(O)C3OC3OC(C)C(O)C(OC)C3N)c2c2oc(=O)c3c(C)ccc4oc(=O)c1c2c43 (stereo not shown)", "lymphocytic leukemia P388", "seemed to be less toxic"],
  ["CCOc1c2cccc(OC3OC(C)C4OC(C)(C)OC4(C)C3OC3OC(C)C(O)C(OC)C3N)c2c2oc(=O)c3c(C)ccc4oc(=O)c1c2c43 (stereo not shown)", "lymphocytic leukemia P388", "seemed to be less toxic"]
]}

The measurements presented in this section are drawn from patent EP0516157A1.
